Ref: ChEMBL document CHEMBL1132980

Molecular target: Adenosine receptor A1 (Bos taurus, UniProt P28190)
Sequence (P28190 whole entry): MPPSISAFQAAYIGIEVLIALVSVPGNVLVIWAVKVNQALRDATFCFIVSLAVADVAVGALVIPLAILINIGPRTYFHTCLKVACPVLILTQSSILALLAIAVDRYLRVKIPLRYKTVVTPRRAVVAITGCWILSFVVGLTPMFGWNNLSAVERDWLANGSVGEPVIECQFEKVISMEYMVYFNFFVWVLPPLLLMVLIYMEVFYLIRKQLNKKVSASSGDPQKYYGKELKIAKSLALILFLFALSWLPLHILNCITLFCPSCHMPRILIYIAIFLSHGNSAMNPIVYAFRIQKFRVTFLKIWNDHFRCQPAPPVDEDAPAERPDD
Test: Binding affinity towards adenosine A1 receptor of bovine brain membrane in presence of [3H]CHA at a concentration of 20 uM
property-label: pKi
// pKi here means minus log10 of the molar concentration (mol/L)

Recorded pKi of "O=c1n(-c2ccccc2)nc2c(NC3CCCCC3)nc3ccccc3n12" , please.
8.84

Name the reported pKi value associated with the compound "Cc1cccc(-n2nc3c(=O)[nH]c4ccccc4n3c2=O)c1"
6.36

I would be grateful if you could share the reported pKi for "Cn1c(=O)c2nn(-c3ccccc3)c(=O)n2c2ccccc21" .
6.51

Requested field: pKi. Item: "O=c1n(-c2cccc(F)c2)nc2c(NC3CCCCC3)nc3ccccc3n12"
8.31

Entry under review: "O=C(Cc1ccccc1)Nc1nc2ccccc2n2c(=O)n(-c3ccccc3)nc12" . Reported pKi?
8.20

Tell me the measured pKi of "COc1ccc(-n2nc3c(N)nc4ccccc4n3c2=O)cc1" , please.
6.51

Which value of pKi has been reported for "O=c1n(-c2ccccc2)nc2c(NCc3ccccc3)nc3ccccc3n12" in the records?
7.26

Which pKi is listed for "Nc1nc2c(NCc3ccccc3)cccc2n2c(=O)n(-c3ccccc3)nc12" ?
6.14

Could you share which pKi value was measured for "O=c1n(-c2cccc(F)c2)nc2c(NC3CCCC3)nc3ccccc3n12" ?
8.96

What measured pKi goes with "Cc1cccc(-n2nc3c(NC4CCCCC4)nc4ccccc4n3c2=O)c1" ?
8.38

GET /values?readout=pKi&item= "COc1ccc(NC(=O)Nc2nc3ccccc3n3c(=O)n(-c4ccccc4)nc23)cc1"
5.59
